test: chemical genetic growth profiling, strain panel (AID 1159580);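 further: tested at 20 µM; growth read once vehicle control cultures reached saturation at 30 °C; 1 = growth at the plate median or of vehicle wells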; conditions: S. cerevisiae deletion strains, growth OD, locus YDR069C, strain doa4, stronger effect = lower value
Among all 5,500 compounds or so, about 2,000 (36%) were called active. Roughly 18% stayed inconclusive and do not appear here. Some of the results follow.
EXPERIMENTAL_READOUT: normalized growth
// keep it numeric: no unit symbol after the value

The examples below pair each entry with its known result.
[
  {
    "MOLECULE": "C=CCSSCC=C",
    "OBSERVED_MEASUREMENT": 1.03
  },
  {
    "MOLECULE": "C=CCSCC=C",
    "OBSERVED_MEASUREMENT": 0.947
  },
  {
    "MOLECULE": "Cc1ncc(CO)c(CO)c1O",
    "OBSERVED_MEASUREMENT": 1.03
  },
  {
    "MOLECULE": "C[C@@H]1CCC2[C@](C)(CO)[C@@H](O)CC[C@]2(C)[C@@]12CC[C@@](CO)(CCO)O2 (some centres undefined)",
    "OBSERVED_MEASUREMENT": 0.963
  },
  {
    "MOLECULE": "CC(C)Nc1nc(Cl)nc(NC(C)C)n1",
    "OBSERVED_MEASUREMENT": 1.01
  },
  {
    "MOLECULE": "COc1nc(NC(C)C)nc(NC(C)C)n1",
    "OBSERVED_MEASUREMENT": 1.02
  }
]

Consider "C=CCSSSCC=C" . Its measured normalized growth is 0.965

Consider CC1=C2C(O)C(=O)OC3CC4C(C)(C)C(=O)C=C[C@]4(C)C(CC1)[C@]23C (some centres undefined) . Its measured normalized growth is 1.02

Consider CC1(C)Oc2ccc3ccc(=O)oc3c2CC1O (centres undefined) . Its measured normalized growth is 0.957

* * *

assay: chemical genetic growth profiling, strain panel (AID 1159580); settings: S. cerevisiae deletion strains, growth OD, locus YER123W, strain YCK3
The whole screen tested about 5,500 compounds, of which about 2,000 (36%) were called active. Another 18% or so got no clear call; they are omitted. No stated cut-off is given here; in the data, active means normalized growth mostly below about 0.91 (no sharp cut-off); inconclusive means no clear call, values can overlap the other calls; inactive means mostly above about 0.92. Some of the results follow.
Allowed answers: t = active, f = inactive

Sample answers from the record:
[
  {
    "MOLECULE": "N/C(=N/OC(=O)Nc1cccc(C(F)(F)F)c1)c1ccc(OC(F)(F)F)cc1",
    "ASSIGNED_CATEGORY": "t"
  },
  {
    "MOLECULE": "CCOC(=O)NC(=S)Nc1ccc(C(C)(C)C)cc1NC(=S)NC(=O)OCC",
    "ASSIGNED_CATEGORY": "f"
  },
  {
    "MOLECULE": "O=C(Nc1ccc(SC(F)(F)F)cc1)Nc1ccc(Oc2cccc(C(F)(F)F)c2)nc1",
    "ASSIGNED_CATEGORY": "f"
  },
  {
    "MOLECULE": "O=C(O/N=C1/CCCc2[nH]c3ccccc3c21)c1ccc(Cl)cc1Cl",
    "ASSIGNED_CATEGORY": "f"
  },
  {
    "MOLECULE": "CC1(C)C=Cc2cc(/C(N)=N\\OC(=O)Nc3cccc(C(F)(F)F)c3)ccc2O1",
    "ASSIGNED_CATEGORY": "f"
  },
  {
    "MOLECULE": "FC(F)(F)Oc1ccc(OCc2n[nH]c(=S)n2-c2ccc(Cl)cc2)cc1",
    "ASSIGNED_CATEGORY": "f"
  },
  {
    "MOLECULE": "COC(=O)/C=C1/OC(c2ccc(OC)cc2)=CC1=O",
    "ASSIGNED_CATEGORY": "t"
  },
  {
    "MOLECULE": "COc1ccc(Br)c(C(=O)/C(C#N)=C/c2cccs2)c1",
    "ASSIGNED_CATEGORY": "t"
  },
  {
    "MOLECULE": "O=c1[nH][nH]c(=O)n1CCCc1cc2cccc3ccc4cccc1c4c32",
    "ASSIGNED_CATEGORY": "f"
  },
  {
    "MOLECULE": "C/C(=N/NC(N)=S)c1csc(-c2ccccc2)n1",
    "ASSIGNED_CATEGORY": "f"
  }
]

Given "FC(F)(F)Sc1ccc(OCc2n[nH]c(=S)n2-c2ccccc2)cc1" , state the outcome it received in this test.
f

Given "CO/N=C1/CC(C)(C)Cc2c(-c3ccn(C(=O)Nc4cccc(Cl)c4)n3)sc(SC)c21" , state the outcome it received in this test.
f

Given "O=c1cc(CSc2ccc(Cl)cc2)c2ccc(O)cc2o1" , state the outcome it received in this test.
t

Given COc1ccccc1N1CCN(C(=O)C(C)c2ccc(CC(C)C)cc2)CC1 (stereo not given) , state the outcome it received in this test.
f

Given "CC(C)/C(=N/OC(=O)c1ccc([N+](=O)[O-])cc1)c1ccccc1" , state the outcome it received in this test.
f

* * *

assay: chemical genetic growth profiling, strain panel (AID 1159580);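 further: tested at 20 µM; growth read once vehicle control cultures reached saturation at 30 °C; 1 = growth at the plate median or of vehicle wells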; settings: S. cerevisiae deletion strains, growth OD, locus YMR219W, strain ESC1, stronger effect = lower value
Screen size: about 5,500 compounds; about 2,000 (36%) were called active. Another 18% or so got no clear call; they are omitted. This is one part of the list.
EXPERIMENTAL_READOUT: normalized growth
// keep it numeric: no unit symbol after the value

The examples below pair each entry with its known result.
[
  {
    "STRUCTURE_SMILES_STRING": "NNC(=O)c1cccnc1Oc1ccccc1",
    "normalized growth": 1.02
  },
  {
    "STRUCTURE_SMILES_STRING": "Cc1ccc(Sc2ncccc2C(=O)NCC(=O)O)cc1",
    "normalized growth": 1.01
  },
  {
    "STRUCTURE_SMILES_STRING": "CC(=O)c1ccccc1OC(=O)c1c(-c2c(Cl)cccc2Cl)noc1C",
    "normalized growth": 1
  }
]

Consider "COc1ccc(Br)c(-c2nnc(-c3ccccc3[N+](=O)[O-])o2)c1" . Its measured normalized growth is 1.01

* * *

assay: chemical genetic growth profiling, strain panel (AID 1159580);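 further: tested at 20 µM; growth read once vehicle control cultures reached saturation at 30 °C; 1 = growth at the plate median or of vehicle wells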; conditions: S. cerevisiae deletion strains, growth OD, locus YOR290C, strain snf2, stronger effect = lower value
About 2,000 (36%) of roughly 5,500 compounds were called active. Roughly 18% stayed inconclusive and do not appear here. Some of the results follow.
EXPERIMENTAL_READOUT: normalized growth
// keep it numeric: no unit symbol after the value

Consider CC(=O)O[C@@H]1CC2C(C)(CC[C@H](O)C2(C)C)C2CC[C@]3(C)C(=CC(=O)O[C@H]3c3ccoc3)C21C (stereo not given in full) . Its measured normalized growth is 0.993

Consider C[C@H]1O[C@@H](O[C@H]2[C@@H](O)C[C@H](O[C@H]3[C@@H](O)C[C@H](O[C@H]4CC[C@]5(C)C6C[C@@H](O)[C@]7(C)[C@@H](C8=CC(=O)OC8)CC[C@]7(O)C6CC[C@@H]5C4)O[C@@H]3C)O[C@@H]2C)C[C@H](O)[C@@H]1O (stereo not given in full) . Its measured normalized growth is 0.973

Consider "N#Cc1c(Cl)cccc1Cl" . Its measured normalized growth is 0.985

Consider "O=C(O)c1ccccc1O" . Its measured normalized growth is 1

Consider C[C@@H]1CC[C@@]23CCC4(C)[C@@](C=CC5[C@@]6(C)CC[C@H](O)C(C)(C)C6CC[C@]54C)(OC2=O)C3[C@H]1C (stereo not given in full) . Its measured normalized growth is 1

* * *

test: chemical genetic growth profiling, strain panel (AID 1159580);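 further: tested at 20 µM; growth read once vehicle control cultures reached saturation at 30 °C; 1 = growth at the plate median or of vehicle wells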; details: S. cerevisiae deletion strains, growth OD, locus YGL086W, strain mad1, stronger effect = lower value
Hit rate of the full screen: of about 5,500 compounds, about 2,000 (36%) were called active. Roughly 18% stayed inconclusive and do not appear here. This is one part of the list.
EXPERIMENTAL_READOUT: normalized growth
// keep it numeric: no unit symbol after the value

The examples below pair each entry with its known result.
[
  {
    "MOLECULE": "CCc1ccc2c(O)c3c(cc2c1C(=O)OC)C(=O)c1c(O)ccc(O)c1C3=O",
    "OBSERVED_MEASUREMENT": 0.987
  },
  {
    "MOLECULE": "NC[C@@H]1O[C@H](O[C@@H]2[C@@H](CO)OC(O[C@@H]3[C@@H](O)[C@H](N)C[C@H](N)[C@H]3O[C@H]3O[C@H](CO)[C@@H](O)[C@H](O)[C@H]3N)[C@@H]2O)[C@H](N)[C@@H](O)[C@@H]1O (stereo partly drawn)",
    "OBSERVED_MEASUREMENT": 0.983
  },
  {
    "MOLECULE": "CC1(C)S[C@@H]2[C@H](NC(=O)[C@@H](N)c3ccc(O)cc3)C(=O)N2[C@H]1C(=O)O",
    "OBSERVED_MEASUREMENT": 0.994
  },
  {
    "MOLECULE": "CC12CCC3C(CCC4(O)CC(O)CCC34/C=N/NC(N)=O)C1(O)CCC2C1=CC(=O)OC1 (stereo not drawn)",
    "OBSERVED_MEASUREMENT": 0.991
  },
  {
    "MOLECULE": "CC[C@H]1CN2CCC1C[C@@H]2[C@@H](O)c1ccnc2ccc(OC)cc12 (stereo partly drawn)",
    "OBSERVED_MEASUREMENT": 1
  },
  {
    "MOLECULE": "CCOC(=O)CC(SP(=S)(OC)OC)C(=O)OCC (stereo not drawn)",
    "OBSERVED_MEASUREMENT": 1
  },
  {
    "MOLECULE": "CC(=O)OCC(=O)[C@@]1(O)CCC2C3C[C@H](C)C4=CC(=O)C=CC4(C)C3[C@@H](O)CC21C (stereo partly drawn)",
    "OBSERVED_MEASUREMENT": 1.02
  },
  {
    "MOLECULE": "COC(=O)C(N)CS (stereo not drawn)",
    "OBSERVED_MEASUREMENT": 0.976
  }
]

Consider CC1(C)S[C@@H]2C(N3C(=O)[C@@H](c4ccccc4)NC3(C)C)C(=O)N2[C@H]1C(=O)O (stereo partly drawn) . Its measured normalized growth is 0.996

Consider "O=C(O)c1ccccc1O" . Its measured normalized growth is 1

Consider "CCCc1nn(C)c2c(=O)[nH]c(-c3cc(S(=O)(=O)N4CCN(C)CC4)ccc3OCC)nc12" . Its measured normalized growth is 0.992

Consider "O=C(CCCN1CCC2(CC1)C(=O)NCN2c1ccccc1)c1ccc(F)cc1" . Its measured normalized growth is 0.988

Consider "COC1=CC(=O)C=C(OC)C1=O" . Its measured normalized growth is 0.983

Origin of measurements: PubChem BioAssay AID1159580
